Test system: Candida albicans
Conditions: 20 µM
Description: Antifungal activity against Candida albicans ATCC 90028 (CO-ADD:FG_001); MIC in YNB media using NBS plates, by OD630
Results with a measured potency or affinity are listed apart.
property.label: Inhibition (%)

1) Cn1c2c(c(=O)n(C)c1=O)NC1(N2)C(=O)Nc2ccccc21 (configuration not stated)
4.78
2) O=[N+]([O-])c1ccc(Sc2ncccn2)c([N+](=O)[O-])c1
12.9
3) C=CCOC(=O)/C=C\C(=O)NC(N)=O
7.76
4) COc1ccc2nc(-c3ccc(Cl)cc3)cc(C(=O)O)c2c1
35.6
5) C#CCSc1nnnn1-c1ccc(Br)c(C)c1
1.42
6) CN(C)C(=O)OCC1COc2ccccc2O1 (configuration not stated)
-0.21
7) c1ccc(-n2nnnc2-c2cccc3ccccc23)cc1
8.07
8) c1ccc(/N=N/N2CCOCC2)cc1
17.7
9) Cc1nc(NCc2ccccc2)c2cc[nH]c2n1
2.35
10) COc1cc2c(cc1OC)[N+]([O-])=C(c1ccccc1)C2=O
13.8
11) CC(C)(CO)N1CCN(C(S)=Nc2ccccc2)CC1
8.13
12) CCOC(=O)Nc1c(Cl)n(C)c(=O)n(C)c1=O
6.3

* * *

Known Inhibition of a selection of compounds
Tested on: Escherichia coli
Test: Antibacterial activity against Escherichia coli ATCC 25922 (CO-ADD:GN_001); MIC in CAMBH media using NBS plates, by Resazurin F(560/590)
Assay type: functional
Details: Concentration 20 uM, ASSAY_TEST Inhibition of Bacterial Growth, detection method Resazurin, Fluorescence (ex560/em590), MEDIA CAMHB, plate type 384well, CORNING #3640, time 18 hr
property.label: Inhibition (%)

1) c1ccc2c(c1)Nc1ccncc1S2
3.1
2) NC(=O)c1ccc(Cl)c2ccccc12
13.67
3) CN(C)S(=O)(=O)Nc1cccc(Br)c1
3.48
4) CCc1noc2cc(-c3ccccc3)n(C)c(=O)c12
-6.9
5) O=[N+]([O-])c1nc[nH]c1/C=C\c1ccccc1
5.35
6) Clc1ccc(Nc2nnc(-c3ccc4c(c3)OCO4)o2)cc1
9.52
7) Nc1nc(SCc2ccccn2)c2ncn(C3OC(CO)C(O)C3O)c2n1 (configuration not stated)
4.84
8) CCOC(=O)c1cc2c(OC)c(OC)ccc2c2ncc(C#N)c(O)c12
-22.93
9) Brc1ccc(/N=N/c2ccc3ccccc3n2)cc1
-16.68
10) CC(=O)OCC1OC(COC(C)=O)(c2ccc(C)cc2)C(OC(C)=O)C1OC(C)=O (configuration not stated)
15.38
11) CCC12CCCN3CCc4c(n(c5ccccc45)C(O)(C(=O)OC)C1)C32 (configuration not stated)
2.09
12) CC1(C)OC2C(CO)OC(n3cnc4c(S)ncnc43)C2O1 (configuration not stated)
11.94

* * *

Tested on: Candida albicans
Settings: 20 µM
Measured potencies and affinities stand elsewhere.
Known Inhibition of a selection of compounds
property.label: Inhibition (%)

1) CCCCN1C(=O)CC(C(=O)OCC)=C1C
1.93
2) CC(=O)OC1C=CCC2C(=O)c3cccc(O)c3C(O)C12 (configuration not stated)
6.66
3) S=C(Nc1ccccc1)c1ccccn1
25.9
4) Cc1nc2[nH]c(=O)n(O)c(=O)c2s1
3.41
5) NCCN1CCNCC1
1.05
6) N#Cc1c(N)nc(N)nc1Nc1ccc(Br)cc1
2.67
7) CC(=O)Oc1ccc(C(c2ccc(OC(C)=O)cc2)c2ccccn2)cc1
0.53
8) Clc1ccccc1/C=C/c1ccnc2ccccc12
30.4
9) NC(=O)c1cc(Br)cc(C2CCCCC2)c1O
2.63
10) CCN(CC)CCNc1c(C)cc(CO)c(Cl)c1C.O=S(=O)(O)NC1CCCCC1
1.43
11) N#CC1=C2CCCCC2(O)NC1=O (configuration not stated)
-0.03
12) CC(=O)[C@H]1CC[C@H]2[C@@H]3CCC4=CC(=O)C=C[C@]4(C)[C@H]3C(=O)C[C@]12C
4.8

* * *

System: Cryptococcus neoformans
Conditions: Concentration 20 uM; ASSAY_TEST Inhibition of Fungal Growth; detection method Resazurin; Absorption (OD600-OD570); plate type 384well; NBS; CORNING #3640
Description: Antifungal activity against Cryptococcus neoformans H99 ATCC 208821 (CO-ADD:FG_002); MIC in YNB media using NBS plates, by Resazurin OD(600-570)
Potency and affinity values are given separately.
Known Inhibition of a selection of molecules
property.label: Inhibition (%)

1) CC(=O)O.COc1ccc2nccc(/C=C/c3ccnc4ccc(OC)cc34)c2c1
-5.13
2) C#C[C@]1(O)CC[C@H]2[C@@H]3CCC4=Cc5oncc5C[C@]4(C)[C@H]3CC[C@@]21C
-10.04
3) Cc1ccncc1C(N)=O
-4.15
4) Cc1nc2[nH]c(=O)n(O)c(=O)c2s1
-6.64
5) COc1ccc(CC(=O)c2ccc(O)cc2O)cc1
-13.72
6) C=CCNC(S)=Nc1c(N)n(C)c(=O)n(C)c1=O
18.71
7) O=C(Nc1ccc(Nc2ccncc2)cc1)c1ccc([N+](=O)[O-])cc1
-7.15
8) CCOC(=O)/C(C#N)=C\c1c[nH]c2ccccc12
2.4
9) CC(=O)OCC1OC(COC(C)=O)(c2ccc(C)cc2)C(OC(C)=O)C1OC(C)=O (stereo not given)
-5.49
10) Clc1ccc(-c2c(C3=NCCCN3)nnn2-c2ccc(Cl)cc2)cc1
-5.35
11) Cc1ccc(/N=N/c2c(N)nn(-c3ccccc3)c2N)cc1
-17.06
12) CC1(CN2CCCC2)CCC(NC(=O)C(c2ccccc2)c2ccccc2)C(C)(C)O1 (stereo not given)
-5.78
13) CSc1nc(O)nnc1Sc1ccccc1
-16.19
14) CC(C1=C(CCN(C)C)Cc2ccccc21)c1ccccn1.O=C(O)/C=C\C(=O)O (stereo not given) [DIMETHINDENE MALEATE]
-1.76
15) CC1=CC2(C)NC(=O)C(C)C12 (stereo not given)
-9.55
16) c1ccc(/N=N/N2CCOCC2)cc1
-10.19
17) O=P(O)(O)c1cc(-c2ccccc2)oc1-c1ccccc1
-17.53
18) O=C(O)CCN1c2ccccc2Sc2ccccc21
-15.83
19) CSc1nnc(-c2cccs2)[nH]1
-11.54
20) O=C(O)/C=C\C(=O)Nc1nccs1
-1.21
21) C#CCSc1nc(-c2ccco2)n[nH]1
-6.15
22) Nc1ncnc2c1ncn2C=C=CCO
-2.86
23) Cn1ncc2c(Nc3ccccc3Cl)nc(Cl)nc21
-6.78
24) c1ccc(NCCSc2nc3ccccc3s2)cc1
13.76
25) N=C(N)NC(=S)Nc1ccc(Cl)cc1
-7.26
26) Nc1ccc(OC(=O)Nc2ccc(O)cc2)cc1
12.42
27) CC(=O)NS(=O)(=O)c1ccc2sc(C)nc2c1
-4.98
28) c1ccn(CCc2ccncc2)c1
-5.95
29) C=CCN=C(S)Nc1cccc([N+](=O)[O-])c1
-2.12
30) NC(=O)Nc1n[nH]c(-c2ccccc2)n1
1.04
31) O=c1[nH]c2c(cnn2-c2ccc(Cl)cc2)c(=O)n1-c1cccc(Cl)c1
-10.88
32) CSc1nc(C)cc(S)n1
-4.48
33) O=C1OCC/C1=C\OCCCO/C=C1\CCOC1=O
-11.43
34) c1ccc(-c2ccc3c(c2)NCCN3)cc1
1.51
35) Cc1c(Cc2ccccc2)[n+]([O-])c2ccccc2[n+]1[O-]
-12.82
36) O=C1COc2c1ccc(O)c2O
-9.43
37) CCOc1ccc(NC(=O)c2cc3ccccc3cc2O)cc1
-4.09
38) O=C(c1ccccc1)c1ccccc1C(=O)c1ccccc1
-5.73
39) Nc1ccc(C(=O)Nc2cccc(N)c2)cc1
-9.54
40) NC(=O)CCC(C(=O)O)N1C(=O)C2C3CCC(C3)C2C1=O (stereo not given)
-5.24
41) N[C@H](C(=O)O)[C@H]1ON=C(Cl)[C@@H]1O
-3.55
42) CCOP(=O)(OCC)/C(C#N)=C/c1c[nH]c2ccccc12
-5.67
43) CCSc1nc(O)cc(O)n1
3.85
44) CCOC(=O)CC(=O)NC(C)(C)CCCCC(C)(C)NC(=O)CC(=O)OCC
-4.13
45) CC1(C)N=C(N)N=C(NCCCOc2ccc([N+](=O)[O-])cc2)N1.CCS(=O)(=O)O
-10.08
46) CCCCn1cnc2c(S)nc(N)nc21
-12.06
47) Clc1nc(NCCc2ccccc2)c2c[nH]nc2n1
-10.39
48) CN1CCC(=C2c3ccccc3C(O)c3ccccc32)CC1 (stereo not given)
-16.59
49) COC(=O)C1=C(C(=O)OC)[C@@H]2CCC[C@H]1[C@H]1[C@@H]2N=NN1c1ccccc1
8.73
50) Cc1cc(C)c2c(SC(C)C)nc(N)nc2n1
-10.66

* * *

Known Inhibition of a selection of compounds
System: Candida albicans
Details: 20 µM
Results with a measured potency or affinity are listed apart.
property.label: Inhibition (%)

1) Cc1c(COC(=O)NC(C)C)c(COC(=O)NC(C)C)c2n1CS(=O)(=O)C2
3.64
2) C=C(C)C/N=C/C1(C)CCC(C)=CO1 (stereo not drawn)
1.63
3) CCOc1ccc(NC(=O)C2CCCN(C)C2)cc1 (stereo not drawn)
9.11
4) O=C(Nc1cccc2ccccc12)c1cc2c(cc1Br)OCO2
2.94
5) Cc1nc(Nc2ccc(F)cc2)nc(Nc2ccc(F)cc2)c1[N+](=O)[O-]
-2.79
6) O=C(Nc1cccc(-c2ccccc2)c1)N1CCN(C(=O)Nc2cccc(-c3ccccc3)c2)CC1
-1.22
7) CCCCC(=O)N1CCCC(C)C1 (stereo not drawn)
4.76
8) COc1c(NC(C)=O)c2ccccc2c2ccccc12
5.3
9) O=C(c1ccccc1)c1ccc(Sc2ccc([N+](=O)[O-])cc2)cc1
2.18
10) Nc1nc(O)c2nn(-c3ccccc3)nc2n1
-3.03
11) CC(C)(C(N)=O)c1ccccc1
-1.04
12) CCCCN1C(=O)CC2CCOC21C (stereo not drawn)
10.6
13) COc1cc(C(=O)C(=O)c2ccc(O)c(OC)c2)ccc1O
1.86
14) Clc1nc(Cl)nc(-c2cn(-c3ccccc3)c3ccccc23)n1
-0.1
15) COc1ccc(NC2=NC(C)(CO)CS2)cc1 (stereo not drawn)
1.85
16) COc1ccc2[nH]c(-c3ccccc3)cc2c1
6.65
17) Cc1cc(N2CCN(C)CC2)n2nc(-c3ccc(Cl)cc3)nc2n1
5.91
18) CC(NC(=O)c1ccc(Cl)c(Cl)c1)c1ccc(-c2ccccc2)cc1 (stereo not drawn)
-5.14
19) Cc1cc2c(cc1C)NC1=C(O)C(c3cccc(O)c3)OC1=N2 (stereo not drawn)
3.61
20) COCC(=O)Oc1cc(-c2ccc(C)cc2C)c(OC(=O)COC)c(-c2ccc(C)cc2C)c1
7.18
21) O=C(O)/C=C\C(=O)Nc1ccc(-c2ccccc2)cc1
23
22) CCCCNC(=O)Nc1ccccc1CC
3.55
23) NS(=O)(=O)c1cc2c(cc1Cl)NC(CC1CCCC1)NS2(=O)=O (stereo not drawn) [CYCLOPENTHIAZIDE]
3.92
24) O=C1c2cccc(Sc3ccccc3)c2C(=O)c2c(Sc3ccccc3)cccc21
0.05
25) Nc1ccc(OC(=O)Nc2ccc(O)cc2)cc1
-2.4
26) Cn1ncc2c(Nc3ccc(O)cc3)nc(Cl)nc21
5.74
27) Cn1nc(N)c2ncc(C(Cl)(Cl)Cl)nc21
10.5
28) c1ccc2c(c1)Nc1cc3ccccc3cc1S2
-0.01
29) Nc1ccc(N/C(S)=N/c2ccccc2)cc1
1.8
30) Fc1ccc(-c2cc(-c3cccs3)cc(-c3ccccc3)n2)cc1
6.36
31) O=S(=O)(c1ccc2c(c1)CCCN2)N1CCC[C@H]2CCCC[C@@H]21
8.6
32) O/N=C(/c1ccccc1)c1ccc2c3c(cccc13)CC2
11.2
33) Nc1nc(SCc2ccccc2)sc1C(=O)N1CCCCC1
8.19
34) COc1ccc(Nc2cc(C)nc(N)n2)cc1
1.31
35) Cc1cccc2cc3cccc(C)c3nc12
0.25
36) O=C(O)CCN1c2ccccc2Sc2ccccc21
16.7
37) CC12C(=O)N(c3nccs3)C(=O)C1(C)C1CCC2O1 (stereo not drawn)
2.65
38) CCN(c1ccccc1)c1nc(Cl)nc2c1cnn2C
2.54
39) O=C(N(c1ccccc1)c1ccccc1)N(c1ccccc1)c1ccccc1
9.21
40) CCOc1ccc(NC(=O)Nc2cc(C(C)C)c(O)cc2C)cc1
4.16
41) COc1ccc(/N=C\c2c(O)ccc3c2oc2cc(Cl)c(O)c(Cl)c23)cc1
2.89
42) CC1(C)CC[C@]2(C(=O)n3ccnc3)CC[C@]3(C)[C@H](C(=O)C=C4[C@@]5(C)C=C(C#N)C(=O)C(C)(C)[C@@H]5CC[C@]43C)[C@@H]2C1
4.81
43) O=C(COc1ccc([N+](=O)[O-])cc1Cl)N1CCOCC1
-1.21
44) CN(C(=O)c1ccncc1)c1ccccc1
4.18
45) Cc1ccc2c(c1)c1ccc3c(c1n2C)C(=O)C=CC3=O
22.6
46) CSc1cccc(NC(=O)Nc2ccccc2C(N)=O)c1
-0.32
47) NC(=O)c1ccc(Cl)c2ccccc12
6.64
48) CCOC(=O)c1c(C)nc(C)c(C(=O)OCC)c1-c1ccc(OC)cc1
6.74
